system: NCI-H596; assay: relative viability (nuclei count vs DMSO), 5 days (fraction); higher = more cells survive; conditions: first compound 0.02 µM
Below is a list of entries, each paired with its recorded relative viability value.

- compound: "CN1CCN(CCOc2cc(OC3CCOCC3)c3c(Nc4c(Cl)ccc5c4OCO5)ncnc3c2)CC1 [Saracatinib] + CC(=O)Nc1cccc(-n2c(=O)n(C3CC3)c(=O)c3c(Nc4ccc(I)cc4F)n(C)c(=O)c(C)c32)c1 [Trametinib] (partner 0.02 µM)"
  relative viability: 0.636
- compound: "CCNC(=O)c1noc(-c2cc(C(C)C)c(O)cc2O)c1-c1ccc(CN2CCOCC2)cc1 [Luminespib] + Nc1ncn([C@H]2C[C@H](O)[C@@H](CO)O2)c(=O)n1 [Decitabine] (partner 2 µM)"
  relative viability: 0.88
- compound: "CN1CCN(CCOc2cc(OC3CCOCC3)c3c(Nc4c(Cl)ccc5c4OCO5)ncnc3c2)CC1 [Saracatinib] + COc1cccc2cc(-c3nc([C@H]4CC[C@H](C(=O)O)CC4)n4ncnc(N)c34)[nH]c12 [OSI-027] (partner 0.5 µM)"
  relative viability: 0.721
- compound: "CCNC(=O)c1noc(-c2cc(C(C)C)c(O)cc2O)c1-c1ccc(CN2CCOCC2)cc1 [Luminespib] + Cc1cc(Nc2cc(N3CCN(C)CC3)nc(Sc3ccc(NC(=O)C4CC4)cc3)n2)n[nH]1 [Tozasertib] (partner 0.1 µM)"
  relative viability: 0.804
- compound: "CCNC(=O)c1noc(-c2cc(C(C)C)c(O)cc2O)c1-c1ccc(CN2CCOCC2)cc1 [Luminespib] + N=C(N)NC(=N)NCCc1ccccc1 [Phenformin] (partner 250 µM)"
  relative viability: 0.588
- compound: "CN1CCN(CCOc2cc(OC3CCOCC3)c3c(Nc4c(Cl)ccc5c4OCO5)ncnc3c2)CC1 [Saracatinib] + O=C(c1cc(Cc2n[nH]c(=O)c3ccccc23)ccc1F)N1CCN(C(=O)C2CC2)CC1 [Olaparib] (partner 8 µM)"
  relative viability: 0.727

###

system: NCI-H2170; experiment: relative viability (nuclei count vs DMSO), 5 days (fraction); higher = more cells survive; conditions: first compound 0.003162 µM

- molecule: "Cc1cn(-c2cc(NC(=O)c3ccc(C)c(Nc4nccc(-c5cccnc5)n4)c3)cc(C(F)(F)F)c2)cn1 [Nilotinib] + Cc1nc(Nc2ncc(C(=O)Nc3c(C)cccc3Cl)s2)cc(N2CCN(CCO)CC2)n1 [Dasatinib] (partner 0.075 µM)"
  relative viability: 0.576
- molecule: "Cc1cn(-c2cc(NC(=O)c3ccc(C)c(Nc4nccc(-c5cccnc5)n4)c3)cc(C(F)(F)F)c2)cn1 [Nilotinib] + COc1cc2c(Oc3ccc(NC(=O)C4(C(=O)Nc5ccc(F)cc5)CC4)cc3F)ccnc2cc1OCCCN1CCOCC1 [Foretinib] (partner 0.25 µM)"
  relative viability: 1.14
- molecule: "Cc1cn(-c2cc(NC(=O)c3ccc(C)c(Nc4nccc(-c5cccnc5)n4)c3)cc(C(F)(F)F)c2)cn1 [Nilotinib] + Cc1nc(NC(=O)N2CCC[C@H]2C(N)=O)sc1-c1ccnc(C(C)(C)C(F)(F)F)c1 [Alpelisib] (partner 2 µM)"
  relative viability: 0.916
- molecule: "Cc1cn(-c2cc(NC(=O)c3ccc(C)c(Nc4nccc(-c5cccnc5)n4)c3)cc(C(F)(F)F)c2)cn1 [Nilotinib] + CCNC(=O)c1noc(-c2cc(C(C)C)c(O)cc2O)c1-c1ccc(CN2CCOCC2)cc1 [Luminespib] (partner 0.01 µM)"
  relative viability: 1.11
